Molecular target: SCRIB_3, Q14160
Sequence (Q14160 999-1103): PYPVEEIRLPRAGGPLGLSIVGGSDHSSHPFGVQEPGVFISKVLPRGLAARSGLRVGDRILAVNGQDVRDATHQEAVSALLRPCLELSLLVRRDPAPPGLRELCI
Experiment: holdup assay
Parameters: key: below the threshold = too weak to quantify, mostly under pKd 3.1 to 4
Details: plain residues with an end cap or a label only (N-terminal biotin on a linker: ttds)

Binder: LDSQIQETSI [MAP4, P27816]
pKd: 5.17
//
Binder: RTRQRNETQV [HPV51-E6, P26554]
pKd: 4.17
//
Binder: SEKHFRETEV [HTLV1-TAX1, P03409]
pKd: 5.34
//
Binder: PKRPFVESNV [TANC2, Q9HCD6]
pKd: 4.79
//
Binder: QFQYAKESYI [TAGAP, Q8N103]
pKd: 4.67
//
Binder: DPLTPSRSQL [DGKK, Q5KSL6]
pKd: 3.5
//
Binder: LCALPKVTTV [AGMAT, Q9BSE5]
pKd: 4.24
//
Binder: DPRNTQTSQI [ABRAXAS2, Q15018]
pKd: 4.01
